FYI, the data here is from patent US20200270309A1.

Give MRT inf for every item shown.
- Test Protocol: Half-lives and pharmacokinetic parameters of polypeptides vs HM-1
- Measurement Conditions: in vivo
Peptide text beside a SMILES is read from it. * marks the point of attachment. X72 = O=C1C=CC(=O)N1c1ccccc1CCCCCCCCCCC(=O)*; X69 = O=C1C=CC(=O)N1c1ccc(CCCCC(=O)*)cc1
Numbers only, in h.

{"Compound": "C[C@H](NC(=O)CNC(=O)[C@H](CCCNC(=N)N)NC(=O)CCCCCCCCCCc1ccccc1N1C(=O)C=CC1=O)C(=O)N[C@@H](CC(=O)O)C(=O)N[C@@H](CCCNC(=N)N)C(=O)N[C@@H](C)C(=O)NCC(=O)NCC(=O)NCC(=O)NCC(=O)N[C@@H](CCCNC(=N)N)C(=O)NCC(=O)N[C@@H](CC(=O)O)C(=O)O [X22] (X72-RGADRAGGGGRGD-OH)", "MRT inf, h": 50.5}

Let us move to another entry and its MRT inf.
Form field MRT inf, entry C[C@H](NC(=O)CNC(=O)[C@H](CCCNC(=N)N)NC(=O)CCCCc1ccc(N2C(=O)C=CC2=O)cc1)C(=O)N[C@@H](CC(=O)O)C(=O)N[C@@H](CCCNC(=N)N)C(=O)N[C@@H](C)C(=O)NCC(=O)NCC(=O)NCC(=O)NCC(=O)N[C@@H](CCCNC(=N)N)C(=O)NCC(=O)N[C@@H](CC(=O)O)C(=O)O [X40] (X69-RGADRAGGGGRGD-OH) : 60.9

* * *

Task for the reader: assign each of the following compounds its reported Joint swelling degree.
- System: adjuvant arthritis
- Test Protocol: Rat adjuvant arthritis (AA) animal model
- Format: in vivo, SD rats
- Measurement Conditions: 4.0 mg/kg, intravenous in the tail once every five days from day 10, mean±SD
Peptide text beside a SMILES is read from it. * marks the point of attachment. X58 = O=C1C=CC(=O)N1c1cccc(CCCCCCCCCCCC(=O)*)c1; X72 = O=C1C=CC(=O)N1c1ccccc1CCCCCCCCCCC(=O)*; X66 = O=C1C=CC(=O)N1c1cccc(CCCCCCCC(=O)*)c1; X55 = O=C1C=CC(=O)N1c1ccccc1CCCCCCCCC(=O)*; X63 = O=C1C=CC(=O)N1c1ccccc1CCCCCCC(=O)*; X75 = O=C1C=CC(=O)N1c1cccc(CC(=O)*)c1
One number for each entry, in mm.

Some solved entries appear below for comparison.
{"Compound": "C[C@H](NC(=O)CNC(=O)[C@H](CCCNC(=N)N)NC(=O)CCCCCCCCCCc1ccccc1N1C(=O)C=CC1=O)C(=O)N[C@@H](CC(=O)O)C(=O)N[C@@H](CCCNC(=N)N)C(=O)N[C@@H](C)C(=O)NCC(=O)NCC(=O)NCC(=O)NCC(=O)N[C@@H](CCCNC(=N)N)C(=O)NCC(=O)N[C@@H](CC(=O)O)C(=O)O [X22] (X72-RGADRAGGGGRGD-OH)", "Value Observed": 0.83}
{"Compound": "C[C@H](NC(=O)CNC(=O)[C@H](CCCNC(=N)N)NC(=O)CCCCCCCCCCCc1cccc(N2C(=O)C=CC2=O)c1)C(=O)N[C@@H](CC(=O)O)C(=O)N[C@@H](CCCNC(=N)N)C(=O)N[C@@H](C)C(=O)NCC(=O)NCC(=O)NCC(=O)NCC(=O)N[C@@H](CCCNC(=N)N)C(=O)NCC(=O)N[C@@H](CC(=O)O)C(=O)O [X35] (X58-RGADRAGGGGRGD-OH)", "Value Observed": 0.85}

Provide reported Joint swelling degree for each item, in the same order as listed.
1. C[C@H](NC(=O)CNC(=O)[C@H](CCCNC(=N)N)NC(=O)CCCCCCCCc1ccccc1N1C(=O)C=CC1=O)C(=O)N[C@@H](CC(=O)O)C(=O)N[C@@H](CCCNC(=N)N)C(=O)N[C@@H](C)C(=O)NCC(=O)NCC(=O)NCC(=O)NCC(=O)N[C@@H](CCCNC(=N)N)C(=O)NCC(=O)N[C@@H](CC(=O)O)C(=O)O [X20] (X55-RGADRAGGGGRGD-OH)
2. C[C@H](NC(=O)CNC(=O)[C@H](CCCNC(=N)N)NC(=O)CCCCCCc1ccccc1N1C(=O)C=CC1=O)C(=O)N[C@@H](CC(=O)O)C(=O)N[C@@H](CCCNC(=N)N)C(=O)N[C@@H](C)C(=O)NCC(=O)NCC(=O)NCC(=O)NCC(=O)N[C@@H](CCCNC(=N)N)C(=O)NCC(=O)N[C@@H](CC(=O)O)C(=O)O [X18] (X63-RGADRAGGGGRGD-OH)
3. C[C@H](NC(=O)CNC(=O)[C@H](CCCNC(=N)N)NC(=O)CCCCCCCc1cccc(N2C(=O)C=CC2=O)c1)C(=O)N[C@@H](CC(=O)O)C(=O)N[C@@H](CCCNC(=N)N)C(=O)N[C@@H](C)C(=O)NCC(=O)NCC(=O)NCC(=O)NCC(=O)N[C@@H](CCCNC(=N)N)C(=O)NCC(=O)N[C@@H](CC(=O)O)C(=O)O [X31] (X66-RGADRAGGGGRGD-OH)
4. C[C@H](NC(=O)CNC(=O)[C@H](CCCNC(=N)N)NC(=O)Cc1cccc(N2C(=O)C=CC2=O)c1)C(=O)N[C@@H](CC(=O)O)C(=O)N[C@@H](CCCNC(=N)N)C(=O)N[C@@H](C)C(=O)NCC(=O)NCC(=O)NCC(=O)NCC(=O)N[C@@H](CCCNC(=N)N)C(=O)NCC(=O)N[C@@H](CC(=O)O)C(=O)O [X25] (X75-RGADRAGGGGRGD-OH)

Ans:
0.8
0.83
0.84
0.71

* * *

- Test Protocol: Half-lives and pharmacokinetic parameters of polypeptides vs HM-1
- Measurement Conditions: in vivo; read-out: MRT0-∞
Peptide text beside a SMILES is read from it. * marks the point of attachment. Hexanoyl(6-maleimido) = O=C1C=CC(=O)N1CCCCCC(=O)*; Propanoyl(3-maleimido) = O=C1C=CC(=O)N1CCC(=O)*; X42 = O=C1C=CC(=O)N1CCOCCC(=O)*; X38 = O=C1C=CC(=O)N1CCOCC(=O)*
Assay Readout: MRT inf (h)
One number for each entry, in h.

{"Compound": "C[C@H](NC(=O)CNC(=O)[C@H](CCCNC(=N)N)NC(=O)CCOCCN1C(=O)C=CC1=O)C(=O)N[C@@H](CC(=O)O)C(=O)N[C@@H](CCCNC(=N)N)C(=O)N[C@@H](C)C(=O)NCC(=O)NCC(=O)NCC(=O)NCC(=O)N[C@@H](CCCNC(=N)N)C(=O)NCC(=O)N[C@@H](CC(=O)O)C(=O)O [X50] (X42-RGADRAGGGGRGD-OH)", "Assay Readout": "MRT inf", "Value Observed": 48.1}
{"Compound": "C[C@H](NC(=O)CNC(=O)[C@H](CCCNC(=N)N)NC(=O)COCCN1C(=O)C=CC1=O)C(=O)N[C@@H](CC(=O)O)C(=O)N[C@@H](CCCNC(=N)N)C(=O)N[C@@H](C)C(=O)NCC(=O)NCC(=O)NCC(=O)NCC(=O)N[C@@H](CCCNC(=N)N)C(=O)NCC(=O)N[C@@H](CC(=O)O)C(=O)O [X49] (X38-RGADRAGGGGRGD-OH)", "Assay Readout": "MRT inf", "Value Observed": 51}
{"Compound": "CC(C)[C@H](NC(=O)[C@H](C)NC(=O)CNC(=O)[C@H](CCCNC(=N)N)NC(=O)CCN1C(=O)C=CC1=O)C(=O)N[C@@H](CC(=O)O)C(=O)N[C@@H](CCCNC(=N)N)C(=O)N[C@@H](C)C(=O)NCC(=O)NCC(=O)NCC(=O)NCC(=O)N[C@@H](CCCNC(=N)N)C(=O)NCC(=O)N[C@@H](CC(=O)O)C(=O)O [P9] ({Propanoyl(3-maleimido)}-RGAVDRAGGGGRGD-OH; C-terminus assumed)", "Assay Readout": "MRT inf", "Value Observed": 50}
{"Compound": "C[C@H](NC(=O)CNC(=O)[C@H](CCCNC(=N)N)NC(=O)CCN1C(=O)C=CC1=O)C(=O)N[C@@H](CC(=O)O)C(=O)N[C@@H](CCCNC(=N)N)C(=O)N[C@@H](C)C(=O)NCC(=O)NCC(=O)NCC(=O)NCC(=O)N[C@@H](CCCNC(=N)N)C(=O)NCC(=O)N[C@@H](CC(=O)O)C(=O)O [X2] ({Propanoyl(3-maleimido)}-RGADRAGGGGRGD-OH)", "Assay Readout": "MRT inf", "Value Observed": 49.8}
{"Compound": "C[C@H](NC(=O)CNC(=O)[C@H](CCCNC(=N)N)NC(=O)CCN1C(=O)C=CC1=O)C(=O)N[C@@H](CC(=O)O)C(=O)N[C@@H](CCCNC(=N)N)C(=O)N[C@@H](C)C(=O)N[C@@H](CCC(=O)O)C(=O)N[C@@H](C)C(=O)N[C@@H](C)C(=O)N[C@@H](C)C(=O)N[C@@H](CCCCN)C(=O)N[C@@H](CCCNC(=N)N)C(=O)NCC(=O)N[C@@H](CC(=O)O)C(=O)O [P11] ({Propanoyl(3-maleimido)}-RGADRAEAAAKRGD-OH)", "Assay Readout": "MRT inf", "Value Observed": 56.5}

// below: MRT inf requested for another compound
The compound C[C@H](NC(=O)[C@H](CCCNC(=N)N)NC(=O)[C@H](CC(=O)O)NC(=O)CNC(=O)[C@H](CCCNC(=N)N)NC(=O)CCCCCN1C(=O)C=CC1=O)C(=O)NCC(=O)NCC(=O)NCC(=O)NCC(=O)N[C@@H](CCCNC(=N)N)C(=O)NCC(=O)N[C@@H](CC(=O)O)C(=O)O [P8] ({Hexanoyl(6-maleimido)}-RGDRAGGGGRGD-OH; C-terminus assumed) showed MRT inf equal to 55.8
